- Assay Target: 5-HT2A receptors (Rattus norvegicus, UniProt P14842)
- Construct: Frontal rat cortex is homogenized in ice-cold buffer; from tissue; host or cells: rat frontal cortex homogenate (membrane pellet)
- Sequence (P14842 whole entry): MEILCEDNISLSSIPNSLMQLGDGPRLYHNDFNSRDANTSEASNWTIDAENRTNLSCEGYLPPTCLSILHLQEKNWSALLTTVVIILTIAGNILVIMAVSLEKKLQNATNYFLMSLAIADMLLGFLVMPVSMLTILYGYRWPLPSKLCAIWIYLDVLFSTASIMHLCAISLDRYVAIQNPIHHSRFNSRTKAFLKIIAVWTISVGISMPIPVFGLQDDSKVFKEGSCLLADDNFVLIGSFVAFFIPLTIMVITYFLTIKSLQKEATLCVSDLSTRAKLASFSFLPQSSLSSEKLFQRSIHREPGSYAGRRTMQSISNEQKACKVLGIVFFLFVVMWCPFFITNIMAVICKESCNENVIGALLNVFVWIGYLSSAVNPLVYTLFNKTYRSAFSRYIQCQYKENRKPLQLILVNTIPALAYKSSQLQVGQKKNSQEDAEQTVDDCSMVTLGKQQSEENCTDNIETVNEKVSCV
- Test Description: 5-HT2A receptor binding test ([3H]ketanserin displacement)
- Assay Setup: frontal rat cortex homogenate, 15 minutes at 37° C.
pIC50: −log10 of the molar value. Structures can show the parent of a compound that is named as a salt.
Recorded measurements of pIC50, one per entry
Attribute Measured: pIC50

molecule="CC(O)(c1ccc(F)cc1)C1CCN(CCc2ccc(Cl)s2)CC1 (racemic)" value=9.16
molecule="CC(O)(c1ccc(F)cc1)C1CCN(CCc2ccncc2)CC1 (racemic)" value=6.66
molecule="CC(O)(c1ccc(Cl)s1)C1CCN(CCc2ccc(F)cc2)CC1 (racemic)" value=9.12
molecule="COc1ccc(CCN2CCC(C(C)(O)c3ccc(F)cc3)CC2)s1 (racemic)" value=7.68
molecule="CC(O)(c1ccc(F)cc1)C1CCN(CCc2ccsc2)CC1 (racemic)" value=8.66
molecule="Cc1cc(CCN2CCC(C(C)(O)c3ccc(F)cc3)CC2)sc1Cl (racemic)" value=8.38
molecule="CC(O)(c1ccc(F)cc1)C1CCN(CCc2ccc(C#N)cc2)CC1 (racemic)" value=7.57
molecule="CC(O)(c1ccccc1)C1CCN(CCc2ccc(Cl)s2)CC1.I (racemic) [hydroiodide]" value=9.08
molecule="Cc1nc(CCN2CCC(C(C)(O)c3ccc(F)cc3)CC2)cs1 (racemic)" value=7.18
molecule="CC(O)(c1ccc(F)cc1)C1CCN(CCc2ccc(F)cc2)CC1 (racemic)" value=8.89
molecule="CC(O)(c1ccccc1)C1CCN(CCc2ccc(F)cc2)CC1.I (racemic) [R1=4-fluorophenyl, R2=phenyl, HI, rac, hydroiodide]" value=9.17
molecule="CC(O)(c1ccc(F)cc1)C1CCN(CCc2ccc(Br)s2)CC1 (racemic)" value=8.41
molecule="CC(O)(c1ccc(Cl)cc1)C1CCN(CCc2ccc(F)cc2)CC1.Cl (racemic) [hydrochloride]" value=8.89
molecule="CC(O)(c1ccc(Cl)cc1)C1CCN(CCc2ccc(Cl)s2)CC1.Cl (racemic) [hydrochloride]" value=8.59
molecule="CC(O)(c1ccc(F)cc1)C1CCN(CCc2ccc(F)cc2)CC1 (single isomer, unassigned; (+)) [hydrochloride]" value=9.46

----------
Recorded measurements of pIC50, one per entry
- Assay Target: 5-HT2A receptors (Rattus norvegicus)
- Construct: Frontal rat cortex is homogenized in ice-cold buffer; from tissue; host or cells: rat frontal cortex homogenate (membrane pellet)
- Test Description: 5-HT2A receptor binding test ([3H]ketanserin displacement)
- Assay Setup: frontal rat cortex homogenate, 15 minutes at 37° C.
pIC50: −log10 of the molar value.
Attribute Measured: pIC50

compound="CC(O)(c1ccc(F)cc1)C1CCN(CCc2ccc(C(F)(F)F)cc2)CC1 (racemic)" value=7.49
compound="CC(O)(c1ccc(F)cc1)C1CCN(CCc2cc(Cl)sc2Cl)CC1 (racemic)" value=8.66
compound="Cc1ccc(CCN2CCC(C(C)(O)c3ccc(F)cc3)CC2)s1 (racemic)" value=9.05

----------
- Assay Target: 5-HT2A receptors (Rattus norvegicus)
- Construct: Frontal rat cortex is homogenized in ice-cold buffer; from tissue; host or cells: rat frontal cortex homogenate (membrane pellet)
- Test Description: 5-HT2A receptor binding test ([3H]ketanserin displacement)
- Assay Setup: frontal rat cortex homogenate, 15 minutes at 37° C.
Values of IC50 strictly less than 2 nM map to true, and values of at least 2 nM map to false.

compound="CC(O)(c1ccc(C(F)(F)F)cc1)C1CCN(CCc2ccc(Cl)s2)CC1 (racemic)" assay_target="5-HT2A receptors (Rattus norvegicus)" class_name=false
compound="CC(O)(c1ccc(F)cc1)C1CCN(CCc2ccc(Cl)s2)CC1.Cl (single isomer, unassigned; (+)) [hydrochloride]" assay_target="5-HT2A receptors (Rattus norvegicus)" class_name=true
compound="CC(O)(c1cccc2c1OCCO2)C1CCN(CCc2ccc(F)cc2)CC1.Cl (racemic) [hydrochloride]" assay_target="5-HT2A receptors (Rattus norvegicus)" class_name=false
compound="CC(O)(c1ccc(F)cc1)C1CCN(CCc2ccc(F)cc2)CC1.Cl (single isomer, unassigned; (-)) [hydrochloride]" assay_target="5-HT2A receptors (Rattus norvegicus)" class_name=false
compound="CC(O)(c1ccc(F)cc1)C1CCN(CCc2ccc(F)cc2F)CC1 (racemic)" assay_target="5-HT2A receptors (Rattus norvegicus)" class_name=true
compound="CC(O)(c1ccc(F)cc1F)C1CCN(CCc2ccc(Cl)s2)CC1 (racemic)" assay_target="5-HT2A receptors (Rattus norvegicus)" class_name=false
compound="Cc1ccccc1CCN1CCC(C(C)(O)c2ccc(C(F)(F)F)cc2)CC1 (racemic)" assay_target="5-HT2A receptors (Rattus norvegicus)" class_name=true

----------
Recorded measurements of melting point, one per entry
Attribute Measured: melting point

molecule="CC(O)(c1ccc(F)cc1)C1CCN(CCc2cccs2)CC1.Cl (racemic)" value="222 to 223 °C"
molecule="CC(O)(c1cccc2c1OCCO2)C1CCN(CCc2ccc(F)cc2)CC1.Cl (racemic)" value="209 to 212 °C"
molecule="CC(O)(c1ccccc1)C1CCN(CCc2ccc(Cl)s2)CC1.I (racemic)" value="177 to 178 °C"
molecule="CC(O)(c1ccc(Cl)cc1)C1CCN(CCc2ccc(F)cc2)CC1.Cl (racemic)" value="201 to 203 °C"
molecule="CC(O)(c1ccccc1)C1CCN(CCc2ccc(F)cc2)CC1.I (racemic)" value="205 to 207 °C"
molecule="CC(O)(c1ccc(F)cc1)C1CCN(CCc2ccc(F)cc2)CC1.Cl (single isomer, unassigned; (-))" value="185 to 186 °C"
molecule="CC(O)(c1ccc(F)cc1)C1CCN(CCc2ccc(F)cc2)CC1 (racemic)" value="122 to 123 °C"
molecule="CC(O)(c1ccc(F)cc1)C1CCN(CCc2ccc(Cl)s2)CC1.Cl (single isomer, unassigned; (+))" value="210 to 211 °C"
molecule="CC(O)(c1ccc(Cl)cc1)C1CCN(CCc2ccc(Cl)s2)CC1.Cl (racemic)" value="192 to 193 °C"
molecule="CC(O)(c1ccc(Cl)s1)C1CCN(CCc2ccc(F)cc2)CC1 (racemic)" value="159 to 160 °C"
